The measured values listed here are drawn from the kinase profiling compilation of Christmann-Franck et al. (2016).

Biological target: MKNK2 (human) (UniProt Q9HBH9)
Sequence (Q9HBH9 whole entry, looked up): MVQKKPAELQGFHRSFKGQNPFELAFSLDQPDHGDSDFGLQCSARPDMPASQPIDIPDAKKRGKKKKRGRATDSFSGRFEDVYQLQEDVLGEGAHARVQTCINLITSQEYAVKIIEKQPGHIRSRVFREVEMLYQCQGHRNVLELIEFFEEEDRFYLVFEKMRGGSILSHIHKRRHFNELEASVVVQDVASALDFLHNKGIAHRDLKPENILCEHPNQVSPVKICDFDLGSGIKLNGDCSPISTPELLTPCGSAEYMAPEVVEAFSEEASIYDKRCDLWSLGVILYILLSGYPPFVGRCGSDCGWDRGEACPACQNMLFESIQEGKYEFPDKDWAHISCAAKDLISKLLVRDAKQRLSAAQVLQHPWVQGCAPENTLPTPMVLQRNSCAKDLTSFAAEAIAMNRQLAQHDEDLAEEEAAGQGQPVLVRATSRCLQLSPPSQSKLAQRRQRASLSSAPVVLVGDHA
Assay: radiometric filter-binding kinase assay
Settings: compound 10.0 µM
Each entry below lists one item and its recorded residual activity value.
Provide only the numeric value, understood in %.

Recorded residual activity, per entry:
CC(C)C[C@H](NC(=O)CNC(=O)c1cc(Cl)ccc1Cl)B1OC(=O)CC(CC(=O)O)(C(=O)O)O1 (some centres undefined): 80
Oc1ccc2ccccc2c1SSc1c(O)ccc2ccccc12: 87
COC(=O)/C=C/C(=O)OC: 101

// residual activity lookup, compound = NC1(c2ccc(-c3nc4ccn5c(=O)[nH]nc5c4cc3-c3ccccc3)cc2)CCC1 , result: 92

---

Each entry below lists one item and its recorded residual activity value.
Target: AURKA (human)
Assay: radiometric filter-binding kinase assay
Settings: compound 1.0 µM
Provide only the numeric value, understood in %.

O=c1c(O)c(-c2ccc(O)c(O)c2)oc2cc(O)c(O)c(O)c12: 95
NS(=O)(=O)OC[C@@H]1C[C@@H](n2ccc3c(N[C@H]4CCc5ccccc54)ncnc32)C[C@@H]1O: 103
Oc1ccc2ccccc2c1SSc1c(O)ccc2ccccc12: 2
CNc1nc(-c2ccc3c(N)n[nH]c3c2)cc(N2C[C@@H](C(=O)NC3CCCCC3)CC[C@H]2C)n1: 98

// moving on: another record for residual activity
// residual activity lookup, compound = O=C(Nc1nc2cc(C(F)(F)F)cc(NC3CC3)n2n1)c1cccnc1 , result: 96

---

Target: MAPK1 (human)
Experiment: radiometric filter-binding kinase assay
Settings: compound 0.1 µM
measurement-name: residual activity (%)
Provide only the numeric value, understood in %.

O=C(O)c1ccc(-c2c[nH]c3ncc(-c4ccccc4)cc23)cc1C1CCCC1: 100
O=C(N[C@@H](COc1ccc2[nH]c(=O)[nH]c2c1)c1ccccc1)c1cccn(Cc2ccc(F)c(F)c2)c1=O: 102

// residual activity lookup, compound = CCCCCc1ccc(/C=C/[C@H](O)[C@@H](CO)NC)cc1 , result: 98

// residual activity lookup, compound = CNC(=O)C1[C@H]2O[C@@](C)([C@@H]1N)n1c3ccccc3c3c4c(c5c6ccccc6n2c5c31)C(=O)NC4 (some centres undefined) , result: 6

// residual activity lookup, compound = C=CC(=O)N1CCC[C@@H](n2nc(-c3ccc(Oc4ccccc4)cc3)c3c(N)ncnc32)C1 , result: 94

// residual activity lookup, compound = O=C(NCCCNc1nc(Nc2cccc(CN3CCOCC3)c2)ncc1C1CC1)C1CCC1 , result: 111

// residual activity lookup, compound = CN(C)C/C=C/C(=O)Nc1cccc(C(=O)Nc2ccc(Nc3nccc(-c4cccnc4)n3)cc2)c1 , result: 99

// residual activity lookup, compound = COc1cc(O)c2c(c1)/C=C/C[C@H](O)[C@H](O)C(=O)/C=C\C[C@H](C)OC2=O , result: 103

// residual activity lookup, compound = Cc1cccc(-c2nn(C(=S)Nc3ccccc3)cc2-c2ccnc3ccccc23)n1 , result: 104

// residual activity lookup, compound = NC1(c2ccc(-c3nc4ccn5c(=O)[nH]nc5c4cc3-c3ccccc3)cc2)CCC1 , result: 104

// residual activity lookup, compound = COc1cc(O)c2c(c1)[C@H]1OC1C[C@H](O)[C@H](O)C(=O)/C=C\C[C@H](C)OC2=O (some centres undefined) , result: 87

// residual activity lookup, compound = CN1CCN(CCOc2cc(OC3CCOCC3)c3c(Nc4c(Cl)ccc5c4OCO5)ncnc3c2)CC1 , result: 100

// residual activity lookup, compound = COc1ccc2c(c1)c1c3c(c4c5ccccc5n(C)c4c1n2CC(O)CN(C)C)C(=O)NC3=O (centres undefined) , result: 114

// residual activity lookup, compound = COc1ccc(-n2ncc3cnc(Nc4cc(OC)c(OC)c(OCCCN5CCN(C)CC5)c4)nc32)cc1 , result: 84

// residual activity lookup, compound = NC(=O)c1cc(-c2ccnc(NC3CCCCC3)c2)nc(N2CCNCC2)c1 , result: 36

// residual activity lookup, compound = CCc1cncnc1N1CCN(Cc2nc3cc(C(F)(F)F)ccc3[nH]2)CC1 , result: 93

// residual activity lookup, compound = COc1ccc(N(C(=O)Nc2c(C)cccc2C)c2cc(Nc3ccc(N4CCN(C)CC4)cc3)ncn2)c(OC)c1 , result: 110

// residual activity lookup, compound = Cc1cc(NC(=O)c2cccc(NC(=O)/C=C/CN(C)C)c2)ccc1Nc1nccc(-c2cccnc2)n1 , result: 110

// residual activity lookup, compound = CCn1c(-c2nonc2N)nc2cncc(CNC3CCNCC3)c21 , result: 113

---

Each entry below lists one item and its recorded residual activity value.
Target: MAPK13 (human) (UniProt O15264)
Sequence (O15264 whole entry, looked up): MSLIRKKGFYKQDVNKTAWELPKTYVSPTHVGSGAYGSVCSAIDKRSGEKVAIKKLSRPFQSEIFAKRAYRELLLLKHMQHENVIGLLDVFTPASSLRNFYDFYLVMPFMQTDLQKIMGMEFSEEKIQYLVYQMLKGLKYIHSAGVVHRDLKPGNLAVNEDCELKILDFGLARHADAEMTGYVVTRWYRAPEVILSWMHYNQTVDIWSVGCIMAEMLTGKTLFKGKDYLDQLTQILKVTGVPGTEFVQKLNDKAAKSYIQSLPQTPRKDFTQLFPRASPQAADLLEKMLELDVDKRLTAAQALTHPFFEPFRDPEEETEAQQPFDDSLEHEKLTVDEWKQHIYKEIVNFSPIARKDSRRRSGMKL
Assay: radiometric filter-binding kinase assay
Conditions: compound 10.0 µM
Provide only the numeric value, understood in %.

// residual activity lookup, compound = Cc1ccc2c(c1)C(=O)[C@@]1(O)CCN(c3ccccc3)C1=N2 , result: 81

// residual activity lookup, compound = Cc1cccc(Nc2nn(C)c3ncnc(N)c23)c1 , result: 105

// residual activity lookup, compound = CCn1c(-c2nonc2N)nc2cncc(CNC3CCNCC3)c21 , result: 88

// residual activity lookup, compound = Cc1ccc(-c2ccc3c(ccc4sc5c(c43)NC[C@@H](C)NC5=O)n2)cn1 , result: 94

// residual activity lookup, compound = O=C(NOCC(O)CO)c1ccc(F)c(F)c1Nc1ccc(I)cc1Cl (centres undefined) , result: 97

// residual activity lookup, compound = O=S(=O)(c1ccc(F)c2nonc12)N1CCN(c2ncc(C(F)(F)F)cc2Cl)CC1 , result: 85

// residual activity lookup, compound = NS(=O)(=O)OC[C@@H]1C[C@@H](n2ccc3c(N[C@H]4CCc5ccccc54)ncnc32)C[C@@H]1O , result: 90

// residual activity lookup, compound = CC1=C(CO)C(=O)O[C@@H]([C@@H](C)[C@H]2CC[C@H]3[C@@H]4C[C@H]5O[C@]56[C@@H](O)C=CC(=O)[C@]6(C)C4CC[C@]23C)C1 (some centres undefined) , result: 92

// residual activity lookup, compound = CN1C(=O)[C@@H](Cc2c[nH]c3ccccc23)NC1=S , result: 102

---

Each entry below lists one item and its recorded residual activity value.
Molecular target: HIPK1 (human) (UniProt Q86Z02)
Sequence (Q86Z02 whole entry, looked up): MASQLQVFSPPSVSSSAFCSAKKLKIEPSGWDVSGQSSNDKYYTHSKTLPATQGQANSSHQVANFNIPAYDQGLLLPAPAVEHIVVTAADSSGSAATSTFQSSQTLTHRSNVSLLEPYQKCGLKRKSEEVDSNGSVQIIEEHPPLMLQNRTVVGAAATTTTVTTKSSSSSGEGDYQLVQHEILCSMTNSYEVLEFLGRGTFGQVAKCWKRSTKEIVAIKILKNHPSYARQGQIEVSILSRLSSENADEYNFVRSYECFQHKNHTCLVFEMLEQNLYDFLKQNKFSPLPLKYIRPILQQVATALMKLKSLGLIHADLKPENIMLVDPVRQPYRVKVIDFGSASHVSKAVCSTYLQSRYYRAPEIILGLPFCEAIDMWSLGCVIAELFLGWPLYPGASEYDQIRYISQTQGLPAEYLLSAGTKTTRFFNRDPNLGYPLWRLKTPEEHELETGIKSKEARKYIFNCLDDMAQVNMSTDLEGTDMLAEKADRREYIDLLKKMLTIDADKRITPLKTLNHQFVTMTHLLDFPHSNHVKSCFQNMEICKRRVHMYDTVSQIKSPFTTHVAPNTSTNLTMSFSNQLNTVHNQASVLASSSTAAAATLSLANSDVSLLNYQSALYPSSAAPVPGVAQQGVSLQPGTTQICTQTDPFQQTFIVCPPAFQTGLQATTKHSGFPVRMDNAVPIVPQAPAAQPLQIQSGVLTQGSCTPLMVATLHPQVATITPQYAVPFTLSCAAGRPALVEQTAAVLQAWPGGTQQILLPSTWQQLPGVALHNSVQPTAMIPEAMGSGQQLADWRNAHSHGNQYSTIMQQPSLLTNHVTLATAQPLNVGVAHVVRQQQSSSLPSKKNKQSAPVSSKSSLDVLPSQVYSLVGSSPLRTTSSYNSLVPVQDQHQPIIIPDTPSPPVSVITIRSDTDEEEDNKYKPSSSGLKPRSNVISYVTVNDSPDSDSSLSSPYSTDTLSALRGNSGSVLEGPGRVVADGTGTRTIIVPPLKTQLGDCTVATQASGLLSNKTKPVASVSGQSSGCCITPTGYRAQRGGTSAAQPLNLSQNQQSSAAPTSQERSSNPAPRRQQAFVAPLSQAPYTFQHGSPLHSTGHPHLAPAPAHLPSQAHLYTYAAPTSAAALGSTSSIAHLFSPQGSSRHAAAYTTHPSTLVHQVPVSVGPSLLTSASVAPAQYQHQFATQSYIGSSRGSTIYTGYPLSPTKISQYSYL
Experiment: radiometric filter-binding kinase assay
Conditions: compound 1.0 µM
Provide only the numeric value, understood in %.

Recorded residual activity, per entry:
N#Cc1c(C2CCNCC2)cc(-c2c(O)cccc2OCC2CC2)nc1N: 113
COc1cc(O)c2c(c1)[C@H]1OC1C[C@H](O)[C@H](O)C(=O)/C=C\C[C@H](C)OC2=O (stereo partly drawn): 95
NCC(=O)Nc1ccc(-n2nc(C(F)(F)F)cc2-c2ccc3c(ccc4ccccc43)c2)cc1: 104
Cc1cc(NC(=O)c2cccc(NC(=O)/C=C/CN(C)C)c2)ccc1Nc1nccc(-c2cccnc2)n1: 87
NS(=O)(=O)OC[C@@H]1C[C@@H](n2ccc3c(N[C@H]4CCc5ccccc54)ncnc32)C[C@@H]1O: 98
CC1=C(CO)C(=O)O[C@@H]([C@@H](C)[C@H]2CC[C@H]3[C@@H]4C[C@H]5O[C@]56[C@@H](O)C=CC(=O)[C@]6(C)C4CC[C@]23C)C1 (stereo partly drawn): 112
C=CC(=O)N1CCC[C@@H](n2nc(-c3ccc(Oc4ccccc4)cc3)c3c(N)ncnc32)C1: 87

// moving on: another record for residual activity
// residual activity lookup, molecule = C=C1C(=O)OC2C1CC/C(C)=C/CCC1(C)OC21 (stereo not drawn) , result: 114

---

Biological target: IKBKE (human)
Test: radiometric filter-binding kinase assay
Conditions: compound 1.0 µM
measurement-name: residual activity (%)
Provide only the numeric value, understood in %.

Recorded residual activity, per entry:
O=C1Nc2nc(-c3c(O)cccc3OCC3CC3)cc(C3CCCNC3)c2CO1 (stereo not given): 83
O=C(Nc1nc2cc(C(F)(F)F)cc(NC3CC3)n2n1)c1cccnc1: 96
Cc1ccc(-c2ccc3c(ccc4sc5c(c43)NC[C@@H](C)NC5=O)n2)cn1: 95

// residual activity lookup, molecule = O=C(Nc1ccccc1-c1cn2c(CN3CCNCC3)csc2n1)c1cnc2ccccc2n1 , result: 102

// residual activity lookup, molecule = Oc1ccc2ccccc2c1SSc1c(O)ccc2ccccc12 , result: 7

// residual activity lookup, molecule = O=C(O)c1cc(N=Nc2ccc(S(=O)(=O)Nc3ccccn3)cc2)ccc1O , result: 92

// residual activity lookup, molecule = Cn1c(=O)c2c(ncn2C)n(C)c1=O , result: 90

// residual activity lookup, molecule = NC(=O)c1cc2c(-c3cccc(-c4ccccc4)c3)cnc(N)c2s1 , result: 86

---

Target: UniProt:P54753
Sequence (P54753 whole entry, looked up): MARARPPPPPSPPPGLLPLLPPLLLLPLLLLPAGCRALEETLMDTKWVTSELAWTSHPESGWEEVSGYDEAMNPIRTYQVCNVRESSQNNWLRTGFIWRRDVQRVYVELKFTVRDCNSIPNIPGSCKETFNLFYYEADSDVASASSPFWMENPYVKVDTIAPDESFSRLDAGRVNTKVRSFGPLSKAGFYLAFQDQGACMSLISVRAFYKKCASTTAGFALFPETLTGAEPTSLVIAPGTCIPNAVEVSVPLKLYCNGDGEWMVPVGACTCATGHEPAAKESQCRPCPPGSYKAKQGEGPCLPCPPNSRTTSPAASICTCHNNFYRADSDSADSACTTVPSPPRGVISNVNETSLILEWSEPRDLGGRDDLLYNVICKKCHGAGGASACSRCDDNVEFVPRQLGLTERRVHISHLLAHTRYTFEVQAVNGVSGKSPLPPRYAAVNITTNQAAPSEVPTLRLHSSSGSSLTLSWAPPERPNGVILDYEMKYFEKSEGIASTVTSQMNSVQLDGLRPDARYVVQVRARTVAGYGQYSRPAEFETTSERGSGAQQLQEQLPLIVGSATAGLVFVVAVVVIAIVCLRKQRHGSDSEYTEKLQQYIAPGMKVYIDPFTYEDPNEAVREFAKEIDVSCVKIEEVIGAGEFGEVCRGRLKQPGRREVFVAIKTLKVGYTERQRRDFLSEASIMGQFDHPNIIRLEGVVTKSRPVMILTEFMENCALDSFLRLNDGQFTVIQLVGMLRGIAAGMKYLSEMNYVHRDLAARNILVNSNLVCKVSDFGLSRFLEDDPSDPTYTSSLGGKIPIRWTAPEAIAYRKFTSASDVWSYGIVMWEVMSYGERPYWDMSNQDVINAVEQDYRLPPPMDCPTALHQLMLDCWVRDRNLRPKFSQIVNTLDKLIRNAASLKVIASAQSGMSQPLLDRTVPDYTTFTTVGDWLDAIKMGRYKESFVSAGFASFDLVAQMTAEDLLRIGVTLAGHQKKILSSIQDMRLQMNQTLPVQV
Assay: radiometric filter-binding kinase assay
Details: compound 0.1 µM
measurement-name: residual activity

CC1=C(CO)C(=O)O[C@@H]([C@@H](C)[C@H]2CC[C@H]3[C@@H]4C[C@H]5O[C@]56[C@@H](O)C=CC(=O)[C@]6(C)C4CC[C@]23C)C1 (some centres undefined): 114%
NC1(c2ccc(-c3nc4ccn5c(=O)[nH]nc5c4cc3-c3ccccc3)cc2)CCC1: 112%
O=C(Nc1nc2cc(C(F)(F)F)cc(NC3CC3)n2n1)c1cccnc1: 95%
O=C(O)c1ccc(-c2c[nH]c3ncc(-c4ccccc4)cc23)cc1C1CCCC1: 108%

// residual activity lookup, compound = COc1ccc(N(C(=O)Nc2c(C)cccc2C)c2cc(Nc3ccc(N4CCN(C)CC4)cc3)ncn2)c(OC)c1 , result: 61%

// residual activity lookup, compound = CN1CCN(CCOc2cc(OC3CCOCC3)c3c(Nc4c(Cl)ccc5c4OCO5)ncnc3c2)CC1 , result: 89%

// residual activity lookup, compound = COc1cc(O)c2c(c1)[C@H]1OC1C[C@H](O)[C@H](O)C(=O)/C=C\C[C@H](C)OC2=O (some centres undefined) , result: 130%
